- System: 362531-283-R-J2-PDC complex spheroid viability;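 note: spheroids exposed to the agents for 7 days before readout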
- assay-notes: Anticancer human tumor 362531-283-R-J2-PDC patient-derived colon adenocarcinoma cell line growth inhibition [RAS]; active = viability on the fitted dose curve at most 10% of control; inactive = the rest
- assay-conditions: second compound 0.3 µM; first compound 1 µM
// classify into active, inactive

# molecule, group-label
measured = [
    ("CC(Nc1ccc2c(c1)OCCn1cc(N3C(=O)OCC3C(F)F)nc1-2)C(N)=O (configuration not stated) + CCn1c(-c2cc(N3CCN(C)CC3)cnc2C(C)OC)c2c3cc(ccc31)-c1csc(n1)CC(NC(=O)C1CC1C)C(=O)N1CCCC(N1)C(=O)OCC(C)(C)C2", "active"),
]

Turning to the following molecule.
(Q) Just curious, what result did C=CC(=O)N1CCN(c2nc(OCC3CCCN3C)nc3c(F)c(-c4nc(N)cc(C)c4C(F)(F)F)c(Cl)cc23)C(C)C1 (configuration not stated) + CCn1c(-c2cc(N3CCN(C)CC3)cnc2C(C)OC)c2c3cc(ccc31)-c1csc(n1)CC(NC(=O)C1CC1C)C(=O)N1CCCC(N1)C(=O)OCC(C)(C)C2 get here?
(A) inactive

meta.source: PubChem BioAssay AID2060909
